EXPERIMENTAL TARGET: UniProt:P29597
Sequence (P29597 whole entry): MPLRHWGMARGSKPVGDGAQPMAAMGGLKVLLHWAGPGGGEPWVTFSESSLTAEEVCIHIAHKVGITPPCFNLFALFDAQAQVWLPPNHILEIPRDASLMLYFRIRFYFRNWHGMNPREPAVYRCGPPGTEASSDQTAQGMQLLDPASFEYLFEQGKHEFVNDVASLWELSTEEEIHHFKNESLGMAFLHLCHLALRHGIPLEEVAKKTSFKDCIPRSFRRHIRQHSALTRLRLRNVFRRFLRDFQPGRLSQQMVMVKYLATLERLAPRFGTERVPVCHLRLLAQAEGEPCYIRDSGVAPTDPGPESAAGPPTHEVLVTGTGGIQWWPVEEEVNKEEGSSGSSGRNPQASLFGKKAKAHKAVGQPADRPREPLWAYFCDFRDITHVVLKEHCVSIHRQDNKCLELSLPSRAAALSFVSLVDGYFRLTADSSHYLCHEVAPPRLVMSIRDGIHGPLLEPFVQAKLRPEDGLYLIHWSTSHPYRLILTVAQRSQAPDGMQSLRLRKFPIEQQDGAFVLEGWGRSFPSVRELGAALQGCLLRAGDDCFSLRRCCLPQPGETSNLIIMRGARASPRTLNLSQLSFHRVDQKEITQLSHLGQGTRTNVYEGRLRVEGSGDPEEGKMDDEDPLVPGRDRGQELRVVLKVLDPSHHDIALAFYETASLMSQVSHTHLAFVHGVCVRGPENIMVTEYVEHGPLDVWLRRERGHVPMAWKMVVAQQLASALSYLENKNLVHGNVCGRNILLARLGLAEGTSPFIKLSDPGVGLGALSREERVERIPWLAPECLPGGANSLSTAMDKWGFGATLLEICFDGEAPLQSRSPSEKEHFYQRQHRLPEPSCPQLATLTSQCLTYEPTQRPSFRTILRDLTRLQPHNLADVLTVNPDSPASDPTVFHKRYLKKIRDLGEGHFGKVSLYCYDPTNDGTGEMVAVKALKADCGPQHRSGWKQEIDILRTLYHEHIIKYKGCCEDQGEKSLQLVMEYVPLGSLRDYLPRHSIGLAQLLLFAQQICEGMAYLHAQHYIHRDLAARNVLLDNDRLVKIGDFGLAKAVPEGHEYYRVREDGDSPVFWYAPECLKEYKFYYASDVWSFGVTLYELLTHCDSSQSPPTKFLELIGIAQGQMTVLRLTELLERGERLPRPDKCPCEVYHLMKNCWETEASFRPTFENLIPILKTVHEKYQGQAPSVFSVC
ASSAY EXPLANATION: Inhibition of N-terminal 6His-tagged human recombinant Tyk2
Overview of reported IC50 across a group of molecules:
RECORDED ENDPOINT: IC50 (µM)

>>> endpoint_value("COc1cc(F)c(-c2nc3c(NCC4CCNCC4)c(Cl)cnc3[nH]2)cc1OC")
28
>>> endpoint_value("COc1ccc(F)c(-c2nc3c(NCC4CCNCC4)c(Cl)cnc3[nH]2)c1")
11.4
>>> endpoint_value("COc1ccc(-c2nc3c(NCC4CCNCC4)c(Cl)cnc3[nH]2)cc1OC")
1.28

----------
Overview of reported IC50 across a group of compounds:
EXPERIMENTAL TARGET: Tyrosine-protein kinase JAK2 (Homo sapiens)
Sequence (O60674 whole entry, the tested form may be a part): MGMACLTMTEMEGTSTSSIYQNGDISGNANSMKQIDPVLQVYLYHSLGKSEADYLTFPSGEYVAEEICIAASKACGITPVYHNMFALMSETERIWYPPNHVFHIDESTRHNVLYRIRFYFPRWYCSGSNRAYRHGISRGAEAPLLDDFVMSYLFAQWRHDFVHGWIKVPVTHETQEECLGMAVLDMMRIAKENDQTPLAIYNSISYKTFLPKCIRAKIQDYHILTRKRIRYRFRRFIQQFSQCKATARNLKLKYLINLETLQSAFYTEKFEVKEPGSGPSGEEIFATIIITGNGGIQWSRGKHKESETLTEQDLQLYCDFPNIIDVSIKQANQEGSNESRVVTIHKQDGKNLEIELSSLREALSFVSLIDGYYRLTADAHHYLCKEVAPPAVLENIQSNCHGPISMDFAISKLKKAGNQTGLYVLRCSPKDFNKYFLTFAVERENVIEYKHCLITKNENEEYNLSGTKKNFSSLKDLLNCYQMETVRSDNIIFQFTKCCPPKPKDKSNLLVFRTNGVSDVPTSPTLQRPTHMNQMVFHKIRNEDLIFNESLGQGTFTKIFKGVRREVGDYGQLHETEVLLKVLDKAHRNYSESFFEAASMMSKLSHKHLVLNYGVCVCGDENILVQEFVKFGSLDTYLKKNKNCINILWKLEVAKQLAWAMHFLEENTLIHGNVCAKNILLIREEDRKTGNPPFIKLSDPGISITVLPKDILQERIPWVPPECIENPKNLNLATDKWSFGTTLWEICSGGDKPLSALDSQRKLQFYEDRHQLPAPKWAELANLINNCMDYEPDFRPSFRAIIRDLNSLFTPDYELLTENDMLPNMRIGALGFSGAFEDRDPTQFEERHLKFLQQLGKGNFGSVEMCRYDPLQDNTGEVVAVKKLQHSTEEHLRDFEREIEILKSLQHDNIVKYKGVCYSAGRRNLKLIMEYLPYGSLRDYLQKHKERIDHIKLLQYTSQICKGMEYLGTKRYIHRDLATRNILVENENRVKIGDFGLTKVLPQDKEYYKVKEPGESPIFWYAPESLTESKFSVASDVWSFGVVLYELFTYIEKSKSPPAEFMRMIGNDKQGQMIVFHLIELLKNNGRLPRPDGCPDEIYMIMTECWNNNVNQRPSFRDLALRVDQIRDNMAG
ASSAY EXPLANATION: Inhibition of N-terminal GST-fused recombinant JAK2 (831 to 1132 residues) (unknown origin) expressed in insect cells using 5FAM-GEEPLYWSFPAKKK-NH2 as substrate by microfluidic capillary electrophoresis method
RECORDED ENDPOINT: IC50 (µM)

>>> endpoint_value("COc1ccc(-c2nc3c(NCC4CCN(C)CC4)c(C(N)=O)cnc3[nH]2)cc1")
10.3
>>> endpoint_value("COc1cccc(-c2nc3c(NCC4CCN(C)CC4)c(Cl)cnc3[nH]2)c1")
16.2
>>> endpoint_value("COc1ccc(-c2nc3c(NCC4CCN(C)CC4)c(Cl)cnc3[nH]2)c(C)c1")
2.7
>>> endpoint_value("COc1ccc(-c2nc3c(NCC4CCN(C)CC4)c(Cl)cnc3[nH]2)cc1")
9.62
>>> endpoint_value("CN1CCC(CNc2c(Cl)cnc3[nH]c(-c4cccc(F)c4)nc23)CC1")
16.2

Value source: ChEMBL document CHEMBL3745697
